The measurements presented in this section are drawn from paper PMC4336329.

Entries and their hERG current change (%, negative = inhibition) at 10uM values follow.
Target: human ether-à-go-go-related gene (hERG) potassium channel (human, UniProt Q12809);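 also: peak tail current of the secondary pulse compared with the same well before compound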
Sequence (Q12809 whole entry, looked up): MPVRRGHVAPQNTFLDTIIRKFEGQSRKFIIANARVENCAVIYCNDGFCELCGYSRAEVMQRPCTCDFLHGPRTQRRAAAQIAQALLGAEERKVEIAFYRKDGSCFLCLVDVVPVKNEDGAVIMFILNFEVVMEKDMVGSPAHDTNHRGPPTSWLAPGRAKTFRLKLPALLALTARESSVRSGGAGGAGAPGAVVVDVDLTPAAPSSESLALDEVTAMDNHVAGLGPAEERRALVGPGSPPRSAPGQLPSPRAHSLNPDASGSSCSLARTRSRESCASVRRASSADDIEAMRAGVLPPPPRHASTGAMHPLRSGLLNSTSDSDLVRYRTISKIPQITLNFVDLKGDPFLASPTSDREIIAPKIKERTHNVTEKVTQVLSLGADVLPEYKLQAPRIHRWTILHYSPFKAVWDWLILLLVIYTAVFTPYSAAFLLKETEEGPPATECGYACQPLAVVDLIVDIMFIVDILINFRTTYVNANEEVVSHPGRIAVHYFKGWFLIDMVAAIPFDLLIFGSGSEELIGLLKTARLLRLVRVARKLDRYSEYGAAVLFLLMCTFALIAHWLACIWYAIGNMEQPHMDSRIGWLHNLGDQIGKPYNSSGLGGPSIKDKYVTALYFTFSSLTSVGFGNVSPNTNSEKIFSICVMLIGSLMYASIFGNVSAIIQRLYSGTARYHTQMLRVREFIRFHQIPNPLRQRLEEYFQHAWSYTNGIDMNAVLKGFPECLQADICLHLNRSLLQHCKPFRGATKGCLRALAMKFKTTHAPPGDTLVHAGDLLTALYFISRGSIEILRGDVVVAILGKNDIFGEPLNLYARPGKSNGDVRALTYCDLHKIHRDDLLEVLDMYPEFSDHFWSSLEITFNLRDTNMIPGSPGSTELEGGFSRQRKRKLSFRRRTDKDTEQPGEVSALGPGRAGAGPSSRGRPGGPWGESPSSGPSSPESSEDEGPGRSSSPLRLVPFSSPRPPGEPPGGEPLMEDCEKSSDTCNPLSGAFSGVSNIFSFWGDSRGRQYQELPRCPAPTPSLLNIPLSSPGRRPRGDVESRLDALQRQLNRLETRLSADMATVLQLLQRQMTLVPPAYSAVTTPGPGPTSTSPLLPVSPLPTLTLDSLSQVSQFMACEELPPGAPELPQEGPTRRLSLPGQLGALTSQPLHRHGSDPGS
Experiment: primary screen, population patch clamp on CHO cells stably expressing hERG; higher = less effect of the substance
Among all 310,000 compounds or so, about 14,000 (4.5%) showed an effect of 50% or more. The effect is printed as a negative number. Shown is part of a subset that was picked to be rich in strong results.
Measured Metric: hERG current change (%, negative = inhibition) at 10uM (%)

{"columns": ["Molecule", "Target Of Assay", "Readout Number"],
 "data": [
  ["CC(NC(=O)c1ccc(NC2=NC3CS(=O)(=O)CC3S2)cc1)c1ccccc1 (stereo not shown)", "human ether-à-go-go-related gene (hERG) potassium channel (human, UniProt Q12809)", 12.9],
  ["COc1ccccc1OCC(=O)Nc1ccc2c(c1)C(=O)N(CC1CCCO1)C2=O (stereo not shown)", "human ether-à-go-go-related gene (hERG) potassium channel (human, UniProt Q12809)", -19.3],
  ["O=S(=O)(Nc1cccnc1)c1cc(Cl)ccc1Cl", "human ether-à-go-go-related gene (hERG) potassium channel (human, UniProt Q12809)", 9.51],
  ["Cc1cc(C)n(CC(=O)N2CCCC(N3CCN(Cc4ccc5c(c4)OCO5)CC3)C2)n1 (stereo not shown)", "human ether-à-go-go-related gene (hERG) potassium channel (human, UniProt Q12809)", -14.2],
  ["CCC(=O)N1CCN(c2ccc(NC(=O)c3cccs3)cc2)CC1", "human ether-à-go-go-related gene (hERG) potassium channel (human, UniProt Q12809)", -0.84],
  ["CC(C)NC(=O)c1cc(-c2ccco2)nn1-c1ccc(Cl)cc1", "human ether-à-go-go-related gene (hERG) potassium channel (human, UniProt Q12809)", -27.4],
  ["C[n+]1ccccc1/C=N/O.[Cl-]", "human ether-à-go-go-related gene (hERG) potassium channel (human, UniProt Q12809)", 17.3],
  ["Br.Cc1ccc(C)c(C(=O)Cn2c(NCCO)nc3ccccc32)c1", "human ether-à-go-go-related gene (hERG) potassium channel (human, UniProt Q12809)", 6.12],
  ["CCCn1c(N)c(N2CCCCC2)c(=O)n(CC(=O)Nc2ccccc2C)c1=O", "human ether-à-go-go-related gene (hERG) potassium channel (human, UniProt Q12809)", 14.6],
  ["Cc1cccc(-c2oc3ccc(-c4ccc5c(c4)OCO5)cc3c2C(=O)OCc2ccc(O)cc2)c1", "human ether-à-go-go-related gene (hERG) potassium channel (human, UniProt Q12809)", 6.27]
]}

---

Entries and their hERG current change (%, negative = inhibition) at 10uM values follow.
Biological target: human ether-à-go-go-related gene (hERG) potassium channel (human, UniProt Q12809);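 also: peak tail current of the secondary pulse compared with the same well before compound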
Assay: primary screen, population patch clamp on CHO cells stably expressing hERG; higher = less effect of the substance
Screen size: about 310,000 compounds; about 14,000 (4.5%) showed an effect of 50% or more. Effects have a minus sign here. This is one part of a sample in which strong results are shown more often than they occur.
Measured Metric: hERG current change (%, negative = inhibition) at 10uM (%)

{"columns": ["Molecule", "Readout Number"],
 "data": [
  ["Cc1c(-c2ccncc2)oc2ccc(Br)cc2c1=O", -41.2],
  ["O=C(Nc1ccc(CN2CCOCC2)cc1)c1ccc(-c2ccc(Cl)cc2Cl)o1", -7.54],
  ["COc1ccc(C(=O)N2CCC(n3nccc3NC(=O)C3CC3)CC2)cc1F", -26.8],
  ["COc1ccc(C(=O)C2CCCN(Cc3ccc(NC(C)=O)cc3)C2)cc1OC (stereo not shown)", -21.1],
  ["CSc1ccccc1NC(=O)c1ccc(N2CC3CC(C2)c2cccc(=O)n2C3)c(NC(=O)c2ccncc2)c1 (stereo not shown)", -30.1],
  ["COc1ccc(C(=O)C2CCCN(Cc3cnc(C)s3)C2)c(OC)c1 (stereo not shown)", -42.3],
  ["COc1ccc(C(=O)C2CCCN(Cc3ccc(C)s3)C2)c(OC)c1 (stereo not shown)", -53.7],
  ["Cc1ccc(C)n1-c1ncc(Br)cn1", 6.58],
  ["CCCCCCCCNC(=O)c1ccc(C)cc1", 10.9],
  ["COc1ccc(C(=O)OCC(=O)NCCN2C(=O)CSC2=O)cc1", -1.03]
]}

---

Target: human ether-à-go-go-related gene (hERG) potassium channel (human, UniProt Q12809);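 also: peak tail current of the secondary pulse compared with the same well before compound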
Test: primary screen, population patch clamp on CHO cells stably expressing hERG; higher = less effect of the substance
In all, about 310,000 compounds went through this assay and about 14,000 (4.5%) showed an effect of 50% or more. The effect is printed as a negative number. This excerpt belongs to a sample that is enriched for strong results.
Entries and their hERG current change (%, negative = inhibition) at 10uM values follow.
Measured Metric: hERG current change (%, negative = inhibition) at 10uM (%)

{"columns": ["Molecule", "Target Of Assay", "Measurement Units", "Readout Number"],
 "data": [
  ["Cc1cccc(NC(=O)c2ccco2)c1C", "human ether-à-go-go-related gene (hERG) potassium channel (human, UniProt Q12809)", "%", 22.4],
  ["COc1ccc(CNC(=O)C(C)Sc2nc3ccccc3c(=O)n2CCCN2CCOCC2)cc1 (stereo not drawn)", "human ether-à-go-go-related gene (hERG) potassium channel (human, UniProt Q12809)", "%", -84.9],
  ["CCN1CCN(c2nc3ccccc3n3cnnc23)CC1", "human ether-à-go-go-related gene (hERG) potassium channel (human, UniProt Q12809)", "%", -14.8],
  ["COc1cc(C(=S)N2CCOCC2)ccc1O", "human ether-à-go-go-related gene (hERG) potassium channel (human, UniProt Q12809)", "%", 29.3],
  ["C[n+]1c2n(c3ccccc31)N=C(c1ccccc1)CS2.[Br-]", "human ether-à-go-go-related gene (hERG) potassium channel (human, UniProt Q12809)", "%", -47.3],
  ["COc1cccc(CNC(=O)CSc2nc3c(oc4ccccc43)c(=O)n2CC2CCCO2)c1 (stereo not drawn)", "human ether-à-go-go-related gene (hERG) potassium channel (human, UniProt Q12809)", "%", -36.4],
  ["CN(Cc1ccccc1F)c1nc(-c2cccnc2)nc2ccccc12", "human ether-à-go-go-related gene (hERG) potassium channel (human, UniProt Q12809)", "%", 3.92],
  ["CCCCN(C(=O)NC(=O)Nc1ccccc1OC)S(C)(=O)=O", "human ether-à-go-go-related gene (hERG) potassium channel (human, UniProt Q12809)", "%", -2.42],
  ["Cc1ccccc1NC(=S)N(Cc1cccs1)C1CCCC1", "human ether-à-go-go-related gene (hERG) potassium channel (human, UniProt Q12809)", "%", 5.42],
  ["CCN1CCN(c2nc(-c3ccccc3)nc3ccccc23)CC1", "human ether-à-go-go-related gene (hERG) potassium channel (human, UniProt Q12809)", "%", -63],
  ["C[n+]1c2n(c3ccccc31)N=C(c1ccc(Cl)cc1)CS2.[Br-]", "human ether-à-go-go-related gene (hERG) potassium channel (human, UniProt Q12809)", "%", -69],
  ["Cc1ccc(C)c(S(=O)(=O)N2CCN(c3nc(-c4cccnc4)nc4ccccc34)CC2)c1", "human ether-à-go-go-related gene (hERG) potassium channel (human, UniProt Q12809)", "%", 1.45],
  ["CN(C)C(CNC(=O)c1ccccc1C(F)(F)F)c1ccco1 (stereo not drawn)", "human ether-à-go-go-related gene (hERG) potassium channel (human, UniProt Q12809)", "%", 7.83],
  ["CN(Cc1cccs1)c1nc(-c2cccnc2)nc2ccccc12", "human ether-à-go-go-related gene (hERG) potassium channel (human, UniProt Q12809)", "%", -53.5],
  ["O=S(=O)(c1ccccc1F)N1CCN(c2nc(-c3cccnc3)nc3ccccc23)CC1", "human ether-à-go-go-related gene (hERG) potassium channel (human, UniProt Q12809)", "%", -41.9],
  ["Cc1nnc2n(c1=O)N=C(c1ccc(Cl)cc1)CS2", "human ether-à-go-go-related gene (hERG) potassium channel (human, UniProt Q12809)", "%", 6.25],
  ["C[n+]1c2n(c3ccccc31)N=C(c1ccc(Br)cc1)CS2.[Br-]", "human ether-à-go-go-related gene (hERG) potassium channel (human, UniProt Q12809)", "%", -69.5],
  ["CC1Sc2n(c3ccccc3[n+]2C)N=C1c1ccccc1.[Br-] (stereo not drawn)", "human ether-à-go-go-related gene (hERG) potassium channel (human, UniProt Q12809)", "%", -49.6],
  ["O=C(CSc1nc2c(oc3ccccc32)c(=O)n1CC1CCCO1)NCc1ccccc1 (stereo not drawn)", "human ether-à-go-go-related gene (hERG) potassium channel (human, UniProt Q12809)", "%", -15.8],
  ["CCN1CCN(c2nn3c(=O)c4ccccc4nc3c3ccccc23)CC1", "human ether-à-go-go-related gene (hERG) potassium channel (human, UniProt Q12809)", "%", -72.7],
  ["Cc1ccc(-c2nnc3n2N=C(c2ccc(Br)cc2)CS3)cc1", "human ether-à-go-go-related gene (hERG) potassium channel (human, UniProt Q12809)", "%", -1.26]
]}
